# System: Fibroblast
# Method Notes: Multiplex assay against human fibroblast
# Format: toxicity, cell-based
# Experimental Context: 24 h, 10 µM, compound concentration 10 uM, replicate 2

[
  {
    "Molecule": "Cc1cc(NC(=O)NCCN2CCC(O)(Cc3ccccc3)CC2)c2ccccc2n1 [PALOSURAN]",
    "Total Cell Count": 117
  },
  {
    "Molecule": "Cc1cc(O)c(-c2ccc([C@@H](C)CN(C)C)cc2)c2c1[nH]c(=O)c1sccc12",
    "Total Cell Count": 124
  },
  {
    "Molecule": "COC(c1ccccc1)(c1ccccc1)[C@H](Oc1nc(C)cc(C)n1)C(=O)O [AMBRISENTAN]",
    "Total Cell Count": 73
  },
  {
    "Molecule": "CC(C)C[C@H](CO)Nc1nc(S[C@@H](C)c2ccccc2)nc2nc(N)sc12 [AZD-8797]",
    "Total Cell Count": 126
  },
  {
    "Molecule": "Nc1nc(-c2ccco2)c2cnn(Cc3ccccc3F)c2n1",
    "Total Cell Count": 147
  },
  {
    "Molecule": "CN1C[C@H](C(=O)N[C@]2(C)O[C@@]3(O)[C@@H]4CCCN4C(=O)[C@H](Cc4ccccc4)N3C2=O)C[C@@H]2c3cccc4[nH]cc(c34)C[C@H]21.CS(=O)(=O)O [DIHYDROERGOTAMINE MESYLATE]",
    "Total Cell Count": 113
  },
  {
    "Molecule": "OCCCNc1cc(-c2ccnc(Nc3cccc(Cl)c3)n2)ccn1",
    "Total Cell Count": 218
  },
  {
    "Molecule": "Cc1ccc(OCC(O)C(C)NC(C)C)c2c1CCC2.Cl (configuration not stated)",
    "Total Cell Count": 168
  },
  {
    "Molecule": "Cn1cc(C(=O)OCC2CCN(CCNS(C)(=O)=O)CC2)c2ccccc21",
    "Total Cell Count": 188
  },
  {
    "Molecule": "COCCCN1CCC(NC(=O)c2cc(Cl)c(N)c3c2OCC3)CC1 [PRUCALOPRIDE]",
    "Total Cell Count": 148
  },
  {
    "Molecule": "CCCCCCNC(=O)Nc1ccc(S(=O)(=O)Nc2ccc(CCNC[C@H](O)COc3ccc(O)cc3)cc2)cc1 [L-755507]",
    "Total Cell Count": 168
  },
  {
    "Molecule": "COCCn1c(C)c(C)s/c1=N\\C(=O)C1C(C)(C)C1(C)C",
    "Total Cell Count": 120
  },
  {
    "Molecule": "O=c1nc2[nH]c3ccccc3nc-2c(=O)[nH]1 [ALLOXAZINE]",
    "Total Cell Count": 82
  },
  {
    "Molecule": "COc1cc2nc(N3CCN(C(=O)c4ccco4)CC3)nc(N)c2cc1OC.Cl [PRAZOSIN HYDROCHLORIDE]",
    "Total Cell Count": 152
  },
  {
    "Molecule": "Cl.Cl.OCCOCCN1CCN(C(c2ccccc2)c2ccc(Cl)cc2)CC1 (configuration not stated) [HYDROXYZINE HYDROCHLORIDE]",
    "Total Cell Count": 198
  },
  {
    "Molecule": "CCC(=O)OCC(=O)[C@@]1(OC(=O)CC)[C@@H](C)C[C@H]2[C@@H]3CCC4=CC(=O)C=C[C@]4(C)[C@@]3(Cl)[C@@H](O)C[C@@]21C [BECLOMETHASONE DIPROPIONATE]",
    "Total Cell Count": 104
  },
  {
    "Molecule": "COc1cc(OC2CCN(C(C)=O)CC2)ccc1C(=O)N1CCC(N2C(=O)OCc3ccccc32)CC1",
    "Total Cell Count": 145
  }
]
